experiment: in vivo; details: mouse, male mice, oral route, mortality noted for 7 days
This listing pairs molecules with measured LD50 at 168 h.
Express your answer in mg/kg, writing the number without its unit.

Below are worked cases with known answers.
> print(dat)
                              molecule      parameter  recorded.measurement
1     CON=CC1CCCNC1 (stereo not shown)  LD50 at 168 h                   125
2  CON=CC1CCCN(O)C1 (stereo not shown)  LD50 at 168 h                   200

Proceeding to the next molecule to report its LD50 at 168 h.
### Prompt Look up LD50 at 168 h: C#CCON=CC1CCCNC1 (stereo not shown)
### Response 100

====

experiment: Diarrheic activity in mice, oral route; details: mouse, in vivo, male mice, read-out: DE50 (dose which causes diarrhea in 50% of the animals)
Sorting guide: entries reporting ED50 beneath 10 mg/kg go in the T pile, the rest go in the F pile.

# count of solved cases: 3
> print(dat)
                                   compound  classification
1  COC(=O)C1=CCCN(C)C1 [Arecoline, reference compound]               F
2  CON=CC1CCCNC1 (centres unmarked) [Example 2, 3-piperidine carbaldehyde O-methyloxime]               T
3  CON=CC1CCCN(O)C1 (centres unmarked) [Example 8]               T

// next entry
### Prompt Here's an entry: C#CCON=CC1CCCNC1 (centres unmarked) [Example 6] . Is its ED50 below 10 mg/kg?
### Response F
